Test system: HT29 colon
experimental.protocol: NCI-60 one-dose screen, 48 h (100 = growth as untreated, 0 = no growth, -100 = all killed)
run.conditions: 10 µM
Compounds without any hit were thinned out: in the full panel of roughly 83,000, 20% have a hit.
result.type: growth (%)
Numbers only; they are read as %.

Here's what some known entries look like.
                                   molecule  observed_value
0                 Cc1cccc([N+](=O)[O-])c1Cl             112
1  COc1cc(C2NC(=O)C(C#N)=C(Nc3cccc(C)c3)S2)ccc1O (stereo not drawn)             107
2                    COC(=O)c1ccc(C(C)C)cc1             107
3        CCN=c1cc2sc3cc(NCC)c(C)cc3nc-2cc1C            16.7
4         N#Cc1ccc(NC(=O)Nc2cccc(C#N)c2)cc1            97.3

Query string: Quick check: growth of Cc1ccc(C)n1-c1ccsc1C(=O)NNC(=O)CCl ?
Result string: 106

Query string: One more molecule: O=C(CCl)N1CCN(C/C=C/c2ccccc2)CC1
Result string: 79.2

Query string: One more molecule: Cc1cc(=O)cc(C)n1-c1ccccc1
Result string: 101

Query string: One more molecule: O=C(NCO)c1ccccc1
Result string: 109

Query string: One more molecule: S=C(Nc1ccccc1)N1CCCCC1
Result string: 102

Query string: One more molecule: CN(C)c1ccc(S(=O)(=O)O)cc1
Result string: 102

Query string: One more molecule: COc1ccc(C(=O)C(Br)C(Br)C(=O)O)cc1 (stereo not drawn)
Result string: 117

Query string: One more molecule: CCOC(=O)c1ccc(Nc2sc(C(=O)c3cccc([N+](=O)[O-])c3)c(N)c2C#N)cc1
Result string: 8.29

----------
Test system: IGROV1 ovarian
experimental.protocol: NCI-60 one-dose screen, 48 h (100 = growth as untreated, 0 = no growth, -100 = all killed)
run.conditions: 10 µM
About 83,000 compounds went through this panel and 20% of them were active in at least one assay; those are over-represented in the sample as a whole.
result.type: growth (%)
Numbers only; they are read as %.

Query string: Quick check: growth of Cc1ccc(/C=C2\SC(=S)N(c3ccc(F)cc3)C2=O)o1 ?
Result string: 90.7

Query string: One more molecule: S=C1CCCCCN1
Result string: 110

Query string: One more molecule: CCOC(=O)C(CCC(C)C)C(=O)OCC
Result string: 102

Query string: One more molecule: O=c1[nH][nH]c(=O)c2cc([N+](=O)[O-])ccc12
Result string: 103

Query string: One more molecule: Cc1cc2nc(CC(=O)c3ccccc3)c(=O)[nH]c2cc1C
Result string: 91.9

----------
System: SF-539 CNS
experimental.protocol: NCI-60 one-dose screen, 48 h (100 = growth as untreated, 0 = no growth, -100 = all killed)
run.conditions: 10 µM
This is part of a sample that, as a whole, favours compounds with a hit. Of some 83,000 tested, about 20% had one in any assay.
result.type: growth (%)
Numbers only; they are read as %.

Here's what some known entries look like.
In [3]: df
Out[3]:
                               compound  result_type  observed_value
0  Cc1ccc(/C(C#N)=C/c2ccc3c(c2)OCO3)cc1       growth            91.1
1                C/C(=N/NC(N)=O)c1ccco1       growth             101
2        CCOC(=O)c1[nH]c(C)c(C(=O)O)c1C       growth             105
3                     C=CC(=O)OCCCCCCCC       growth            99.5

Query string: Quick check: growth of S=C1NCc2cncnc2N1 ?
Result string: 92.7

Query string: One more compound: O=C(Nc1cccc(NC(=O)Nc2cc(C(F)(F)F)ccc2Cl)c1)Nc1cc(C(F)(F)F)ccc1Cl
Result string: 34

Query string: One more compound: OCCN(CCO)C(=S)S
Result string: 106

Query string: One more compound: CCOC(=O)CNN
Result string: 108

Query string: One more compound: CCCCNC1(C#N)CCN(Cc2ccccc2)CC1
Result string: 99.8

Query string: One more compound: O=C(O)CCCC(=O)O
Result string: 104
